# Test system: NCI-H522 lung
# experimental-protocol: NCI-60 one-dose screen, 48 h (100 = growth as untreated, 0 = no growth, -100 = all killed)
# condition-parameters: 10 µM
About 83,000 compounds went through this panel and 20% of them were active in at least one assay; those are over-represented in the sample as a whole.
observed-property: growth (%)
Just the number please, in %, no unit attached.

A selection of reference data follows.
Req: Item under review: COc1ccc(NC(=O)Nc2ccc(OCC(=O)N=Nc3c(O)[nH]c4ccc([N+](=O)[O-])cc34)cc2)cc1 . Reported growth?
Resp: 0.434

Req: If you can, please state the reported growth value of CC(=O)OC[C@@]1(C)C2CC[C@]3(C)C(CC=C4C5CC(C)(C)CC[C@]5(C(=O)Nc5ccccc5)CC[C@]43C)[C@@]2(C)C[C@@H](OC(C)=O)[C@@H]1OC(C)=O (some centres undefined) .
Resp: 42

Req: Suppose we examine the molecule CN1CCN(Cc2ccc(C(=O)Nc3cccc(Nc4ccc5cc(O)ccc5n4)c3)cc2C(F)(F)F)CC1 ; what growth value has been reported?
Resp: -68.8

The record that follows has no growth shown yet.
Req: Entry under review: COc1ccccc1NCc1ccc(CO)n1-c1ccc(C)cc1 . Reported growth?
Resp: 93.7

---

# System: BT-549 breast
# experimental-protocol: NCI-60 one-dose screen, 48 h (100 = growth as untreated, 0 = no growth, -100 = all killed)
# condition-parameters: 10 µM
The panel holds about 83,000 compounds, 20% with a hit somewhere; the sample as a whole holds those more often.
observed-property: growth (%)
Write the value in % as a bare number.

Previously resolved entries follow.
Req: Quick check: growth of O=C(Nc1cccc([N+](=O)[O-])c1)Nc1cccc([N+](=O)[O-])c1 ?
Resp: 67.1

Req: Fill in: growth of COc1ccc2nc(Cl)c(-c3cc(-c4ccccc4)nc(=S)[nH]3)cc2c1 is ___
Resp: 14.7

Req: GET /values?readout=growth&item= CC(=O)c1cc(C(=O)N2c3ccccc3Sc3ccccc32)n2ccc(C)cc12
Resp: 16

Req: Requested field: growth. Item: C/C(=N\N=C\c1ccc(Cl)c([N+](=O)[O-])c1)c1ccc2c(c1)Nc1ccccc1S2
Resp: 58.4

---
Req: Field request: growth | item: CC(=O)Nc1ccc(-c2cn(-c3cccc(C(=O)Nc4cc(CN5CCOCC5)cc(C(F)(F)F)c4)c3)nn2)cn1
Resp: -82.1

Req: For the molecule shown here, COc1cc2oc(-c3cccc(C(=O)Nc4ccc(Cl)cc4)c3)cc(=O)c2c(OCCNC(=O)CNC(=O)OC(C)(C)C)c1OC , give the reported growth.
Resp: 51.2

---

Entries and their growth values follow.
# Tested on: OVCAR-3 ovarian
# experimental-protocol: NCI-60 one-dose screen, 48 h (100 = growth as untreated, 0 = no growth, -100 = all killed)
# condition-parameters: 10 µM
About 83,000 compounds went through this panel and 20% of them were active in at least one assay; those are over-represented in the sample as a whole.
Note: unit % is implicit; provide only the numeric part.

Req: Lookup: growth / OVCAR-3 ovarian / CC(=O)Nc1ccc(-c2cn(-c3cccc(C(=O)Nc4cc(C(F)(F)F)cc(C(F)(F)F)c4)c3)nn2)cn1
Resp: -30.9

Req: Which growth is reported with OVCAR-3 ovarian for this entry: CCOc1ccc(/C=N/NC(=O)Cn2nc(Cc3ccc([N+](=O)[O-])cc3)c3onc(C)c3c2=O)cc1 ?
Resp: -37.5

Req: Reported growth for OVCAR-3 ovarian, given O=C(Nc1cccc(C(F)(F)F)c1)c1cncc(C#Cc2cnc3ccc(N4CCOCC4)nn23)c1 ?
Resp: -23.6

Req: Recall the recorded growth for COc1ccc(NC(=O)Cn2c(/C=C/c3ccc(N(C)C)cc3)nc3ccccc3c2=O)cc1 with OVCAR-3 ovarian and state it.
Resp: 26.9
